# Tested on: 388556-164-R-J1-PDC complex spheroid viability
# assayDetails: Anticancer human tumor 388556-164-R-J1-PDC patient-derived colon adenocarcinoma cell line growth inhibition [RAS]
# appliedConditions: second compound 0.0316 µM; first compound 0.1 µM; stronger effect = lower value
measuredProperty: viability, T/C (%)
Report as a plain number; the unit % is understood.

Below: 3 compounds and their reported viability, T/C.
[[record]]
compound = "CC(C)NCC(C(=O)N1CCN(c2ncnc3c2C(C)CC3O)CC1)c1ccc(Cl)cc1 (stereo not given) + C#Cc1c(F)ccc2cc(O)cc(-c3ncc4c(N5CC6CCC(C5)N6)nc(OCC56CCCN5CC(F)C6)nc4c3F)c12"
measuredresult = 106

[[record]]
compound = "C[C@@H](NC(=O)c1ncnc(N)c1Cl)c1ncc(C(=O)Nc2cc(C(F)(F)F)c(Cl)cn2)s1 + C#Cc1c(F)ccc2cc(O)cc(-c3ncc4c(N5CC6CCC(C5)N6)nc(OCC56CCCN5CC(F)C6)nc4c3F)c12"
measuredresult = 124

[[record]]
compound = "CC(C)n1nc(-c2ccc3oc(N)nc3c2)c2c(N)ncnc21 + C#Cc1c(F)ccc2cc(O)cc(-c3ncc4c(N5CC6CCC(C5)N6)nc(OCC56CCCN5CC(F)C6)nc4c3F)c12"
measuredresult = 49.4


Exercise: Given the compound Cc1nc(N2CCC3(CC2)COC(C)C3N)c(CO)nc1Sc1ccnc(N)c1Cl (stereo not given) + C#Cc1c(F)ccc2cc(O)cc(-c3ncc4c(N5CC6CCC(C5)N6)nc(OCC56CCCN5CC(F)C6)nc4c3F)c12 , what is its reported viability, T/C?
Solution: 85.2

Exercise: I am curious: what viability, T/C value has been reported for CCC(CC)c1cc(NC2CCC(N)C2)n2nccc2n1 (stereo not given) + C#Cc1c(F)ccc2cc(O)cc(-c3ncc4c(N5CC6CCC(C5)N6)nc(OCC56CCCN5CC(F)C6)nc4c3F)c12 ?
Solution: 97.2

Exercise: Tell me the measured viability, T/C of CC1(O)CCCC1n1c(=O)c(C(F)F)cc2cnc(NC3CCN(S(C)(=O)=O)CC3)nc21 (stereo not given) + C#Cc1c(F)ccc2cc(O)cc(-c3ncc4c(N5CC6CCC(C5)N6)nc(OCC56CCCN5CC(F)C6)nc4c3F)c12 , please.
Solution: 101

Exercise: Given CCN1CCN(Cc2ccc(Nc3ncc(F)c(-c4cc(F)c5nc(C)n(C(C)C)c5c4)n3)nc2)CC1 + C#Cc1c(F)ccc2cc(O)cc(-c3ncc4c(N5CC6CCC(C5)N6)nc(OCC56CCCN5CC(F)C6)nc4c3F)c12 , state its recorded viability, T/C.
Solution: 103

Exercise: What does the data say about its viability, T/C? Entry: CC(Nc1ccc2c(c1)OCCn1cc(N3C(=O)OCC3C(F)F)nc1-2)C(N)=O (stereo not given) + C#Cc1c(F)ccc2cc(O)cc(-c3ncc4c(N5CC6CCC(C5)N6)nc(OCC56CCCN5CC(F)C6)nc4c3F)c12
Solution: 95.5

Exercise: Given CCC(CC)c1cc(NC2CCC(N)C2)n2nccc2n1 (stereo not given) + C=CC(=O)N1CCN(c2nc(OCC3CCCN3C)nc3c(F)c(-c4nc(N)cc(C)c4C(F)(F)F)c(Cl)cc23)C(C)C1 , state its recorded viability, T/C.
Solution: 104

Exercise: What does the data say about its viability, T/C? Entry: Nc1ccn(C2OC(CO)C(O)C2(F)F)c(=O)n1 (stereo not given) + C=CC(=O)N1CCN(c2nc(OCC3CCCN3C)nc3c(F)c(-c4nc(N)cc(C)c4C(F)(F)F)c(Cl)cc23)C(C)C1
Solution: 71.6

----------
# Tested on: 388556-164-R-J1-PDC complex spheroid viability
# assayDetails: Anticancer human tumor 388556-164-R-J1-PDC cell line growth inhibition [RAS];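 further: spheroids exposed to compound for 7 days before readout; 100% = DMSO vehicle control luminescence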
# appliedConditions: second compound 0.003 µM; first compound 1 µM; stronger effect = lower value
measuredProperty: viability, T/C (%)
Report only the number, with the unit % understood.

Use these answered entries as a reference point.
[[record]]
molecule = "Cc1nc(N2CCC3(CC2)COC(C)C3N)c(CO)nc1Sc1ccnc(N)c1Cl (stereo not drawn) + CCn1c(-c2cc(N3CCN(C)CC3)cnc2C(C)OC)c2c3cc(ccc31)-c1csc(n1)CC(NC(=O)C1CC1C)C(=O)N1CCCC(N1)C(=O)OCC(C)(C)C2"
measuredproperty = "viability, T/C"
measuredresult = 45.8

[[record]]
molecule = "CC(C)NCC(C(=O)N1CCN(c2ncnc3c2C(C)CC3O)CC1)c1ccc(Cl)cc1 (stereo not drawn) + CCn1c(-c2cc(N3CCN(C)CC3)cnc2C(C)OC)c2c3cc(ccc31)-c1csc(n1)CC(NC(=O)C1CC1C)C(=O)N1CCCC(N1)C(=O)OCC(C)(C)C2"
measuredproperty = "viability, T/C"
measuredresult = 82

[[record]]
molecule = "CC1(O)CCCC1n1c(=O)c(C(F)F)cc2cnc(NC3CCN(S(C)(=O)=O)CC3)nc21 (stereo not drawn) + CCn1c(-c2cc(N3CCN(C)CC3)cnc2C(C)OC)c2c3cc(ccc31)-c1csc(n1)CC(NC(=O)C1CC1C)C(=O)N1CCCC(N1)C(=O)OCC(C)(C)C2"
measuredproperty = "viability, T/C"
measuredresult = 78.7

[[record]]
molecule = "C=CC(=O)Nc1cc(Nc2nccc(-c3cn(C)c4ccccc34)n2)c(OC)cc1N(C)CCN(C)C + CCn1c(-c2cccnc2C(C)OC)c2c3cc(ccc31)N1CCOC(CC(NC(=O)C(C(C)C)N(C)C(=O)C3(F)CCN(C(=O)C#CC(C)(C)N(C)C)CC3)C(=O)N3CCCC(N3)C(=O)OCC(C)(C)C2)C1"
measuredproperty = "viability, T/C"
measuredresult = 53.4

[[record]]
molecule = "Nc1ccn(C2OC(CO)C(O)C2(F)F)c(=O)n1 (stereo not drawn) + CCn1c(-c2cccnc2C(C)OC)c2c3cc(ccc31)N1CCOC(CC(NC(=O)C(C(C)C)N(C)C(=O)C3(F)CCN(C(=O)C#CC(C)(C)N(C)C)CC3)C(=O)N3CCCC(N3)C(=O)OCC(C)(C)C2)C1"
measuredproperty = "viability, T/C"
measuredresult = 65.8

[[record]]
molecule = "CC(=O)OC12COC1CC(O)C1(C)C(=O)C(O)C3=C(C)C(OC(=O)C(O)C(NC(=O)OC(C)(C)C)c4ccccc4)CC(O)(C(OC(=O)c4ccccc4)C21)C3(C)C (stereo not drawn) + CCn1c(-c2cccnc2C(C)OC)c2c3cc(ccc31)N1CCOC(CC(NC(=O)C(C(C)C)N(C)C(=O)C3(F)CCN(C(=O)C#CC(C)(C)N(C)C)CC3)C(=O)N3CCCC(N3)C(=O)OCC(C)(C)C2)C1"
measuredproperty = "viability, T/C"
measuredresult = 76


Exercise: Returns the measured viability, T/C for the input molecule. Input: NC1c2ccccc2OC12CCN(c1cnc3c(N4CCCc5ncccc54)n[nH]c3n1)CC2 (stereo not drawn) + CCn1c(-c2cccnc2C(C)OC)c2c3cc(ccc31)N1CCOC(CC(NC(=O)C(C(C)C)N(C)C(=O)C3(F)CCN(C(=O)C#CC(C)(C)N(C)C)CC3)C(=O)N3CCCC(N3)C(=O)OCC(C)(C)C2)C1
Solution: 37.1

Exercise: Looking for the measured viability, T/C of O=C(c1ccc(F)c(F)c1Nc1ccc(I)cc1F)N1CC(O)([C@@H]2CCCCN2)C1 + CCn1c(-c2cc(N3CCN(C)CC3)cnc2C(C)OC)c2c3cc(ccc31)-c1csc(n1)CC(NC(=O)C1CC1C)C(=O)N1CCCC(N1)C(=O)OCC(C)(C)C2 , can you help?
Solution: 19.3

----------
# Tested on: 388556-164-R-J1-PDC complex spheroid viability
# assayDetails: Anticancer human tumor 388556-164-R-J1-PDC cell line growth inhibition [RAS];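 further: spheroids exposed to compound for 7 days before readout; 100% = DMSO vehicle control luminescence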
# appliedConditions: second compound 0.316 µM; first compound 0.1 µM; stronger effect = lower value
viability, T/C by entry:

Sample records with viability, T/C:
[[record]]
compound = "CC(C)NCC(C(=O)N1CCN(c2ncnc3c2C(C)CC3O)CC1)c1ccc(Cl)cc1 (centres undefined) + C=CC(=O)N1CCN(c2nc(OCC3CCCN3C)nc3c(F)c(-c4nc(N)cc(C)c4C(F)(F)F)c(Cl)cc23)C(C)C1"
measuredresult = "112%"

[[record]]
compound = "Cc1nc(N2CCC3(CC2)COC(C)C3N)c(CO)nc1Sc1ccnc(N)c1Cl (centres undefined) + C#Cc1c(F)ccc2cc(O)cc(-c3ncc4c(N5CC6CCC(C5)N6)nc(OCC56CCCN5CC(F)C6)nc4c3F)c12"
measuredresult = "81.4%"

[[record]]
compound = "Cc1nc(N2CCC3(CC2)COC(C)C3N)c(CO)nc1Sc1ccnc(N)c1Cl (centres undefined) + C=CC(=O)N1CCN(c2nc(OCC3CCCN3C)nc3c(F)c(-c4nc(N)cc(C)c4C(F)(F)F)c(Cl)cc23)C(C)C1"
measuredresult = "78%"

[[record]]
compound = "CCN1CCN(Cc2ccc(Nc3ncc(F)c(-c4cc(F)c5nc(C)n(C(C)C)c5c4)n3)nc2)CC1 + C=CC(=O)N1CCN(c2nc(OCC3CCCN3C)nc3c(F)c(-c4nc(N)cc(C)c4C(F)(F)F)c(Cl)cc23)C(C)C1"
measuredresult = "89.7%"

[[record]]
compound = "CCC(CC)c1cc(NC2CCC(N)C2)n2nccc2n1 (centres undefined) + C=CC(=O)N1CCN(c2nc(OCC3CCCN3C)nc3c(F)c(-c4nc(N)cc(C)c4C(F)(F)F)c(Cl)cc23)C(C)C1"
measuredresult = "112%"

[[record]]
compound = "CCC(CC)c1cc(NC2CCC(N)C2)n2nccc2n1 (centres undefined) + C#Cc1c(F)ccc2cc(O)cc(-c3ncc4c(N5CC6CCC(C5)N6)nc(OCC56CCCN5CC(F)C6)nc4c3F)c12"
measuredresult = "98%"


Exercise: Query viability, T/C on 388556-164-R-J1-PDC complex spheroid viability for C=CC(=O)Nc1cc(Nc2nccc(-c3cn(C)c4ccccc34)n2)c(OC)cc1N(C)CCN(C)C + C=CC(=O)N1CCN(c2nc(OCC3CCCN3C)nc3c(F)c(-c4nc(N)cc(C)c4C(F)(F)F)c(Cl)cc23)C(C)C1
Solution: 94.5%

Exercise: Query viability, T/C on 388556-164-R-J1-PDC complex spheroid viability for Nc1ccn(C2OC(CO)C(O)C2(F)F)c(=O)n1 (centres undefined) + C=CC(=O)N1CCN(c2nc(OCC3CCCN3C)nc3c(F)c(-c4nc(N)cc(C)c4C(F)(F)F)c(Cl)cc23)C(C)C1
Solution: 74.8%

Exercise: Form: Entry = CC(C)n1nc(-c2ccc3oc(N)nc3c2)c2c(N)ncnc21 + C#Cc1c(F)ccc2cc(O)cc(-c3ncc4c(N5CC6CCC(C5)N6)nc(OCC56CCCN5CC(F)C6)nc4c3F)c12 | System = 388556-164-R-J1-PDC complex spheroid viability | viability, T/C = ____
Solution: 37.8%

Exercise: For the record NC1c2ccccc2OC12CCN(c1cnc3c(N4CCCc5ncccc54)n[nH]c3n1)CC2 (centres undefined) + C=CC(=O)N1CCN(c2nc(OCC3CCCN3C)nc3c(F)c(-c4nc(N)cc(C)c4C(F)(F)F)c(Cl)cc23)C(C)C1 , what value of viability, T/C is listed for 388556-164-R-J1-PDC complex spheroid viability?
Solution: 54.6%

Exercise: What measured viability, T/C is associated with CC(=O)OC12COC1CC(O)C1(C)C(=O)C(O)C3=C(C)C(OC(=O)C(O)C(NC(=O)OC(C)(C)C)c4ccccc4)CC(O)(C(OC(=O)c4ccccc4)C21)C3(C)C (centres undefined) + C=CC(=O)N1CCN(c2nc(OCC3CCCN3C)nc3c(F)c(-c4nc(N)cc(C)c4C(F)(F)F)c(Cl)cc23)C(C)C1 on 388556-164-R-J1-PDC complex spheroid viability?
Solution: 81.4%

Exercise: Which measured viability, T/C belongs to C[C@@H](NC(=O)c1ncnc(N)c1Cl)c1ncc(C(=O)Nc2cc(C(F)(F)F)c(Cl)cn2)s1 + C=CC(=O)N1CCN(c2nc(OCC3CCCN3C)nc3c(F)c(-c4nc(N)cc(C)c4C(F)(F)F)c(Cl)cc23)C(C)C1 , tested on 388556-164-R-J1-PDC complex spheroid viability?
Solution: 122%

Exercise: What reported viability, T/C corresponds to CC(C)n1nc(-c2ccc3oc(N)nc3c2)c2c(N)ncnc21 + C=CC(=O)N1CCN(c2nc(OCC3CCCN3C)nc3c(F)c(-c4nc(N)cc(C)c4C(F)(F)F)c(Cl)cc23)C(C)C1 on 388556-164-R-J1-PDC complex spheroid viability?
Solution: 46.9%
